# credit: ChEMBL document CHEMBL5625262

Target: Orexin receptor type 2 (Homo sapiens)
Experiment: Antagonist activity at human Ox2R overexpressed in rat Chem-1 cells assessed as inhibition of orexin A induced calcium flux at 10 uM preincubated for 15 mins followed by orexin A addition by FLIPR analysis relative to control
Format: functional, cell-based
Below, each entry is listed with its recorded inhibition.
Recorded Metric: inhibition (%)

• CCc1nc(C(F)(F)F)cnc1N[C@H]1CCC[C@@H]1NC(=O)c1ncccc1-n1nccn1 = 37.5
• CC(C)c1cnc(N[C@H]2CCC[C@@H]2NC(=O)c2ccccc2-n2nccn2)cn1 = 12
• CCc1nc(C(F)(F)F)cnc1N[C@H]1CCC[C@@H]1NC(=O)c1ccccc1-n1nccn1 = 25.6
• Cc1nc(C(F)(F)F)cnc1N[C@H]1CCC[C@@H]1NC(=O)c1ccccc1-n1nccn1 = 22
• Cc1nc(C(F)(F)F)cnc1N[C@H]1CCC[C@@H]1NC(=O)c1ncccc1-n1nccn1 = 11.4
• O=C(N[C@H]1CCC[C@@H]1Nc1cnc(C(F)(F)F)cn1)c1ccccc1-n1nccn1 = 12
• C[C@]1(Nc2cnc(C(F)(F)F)cn2)CCC[C@@H]1NC(=O)c1ccccc1-n1nccn1 = 25.3
• C[C@]1(Nc2cnc(C(F)(F)F)cn2)CCC[C@@H]1NC(=O)c1ncccc1-n1nccn1 = 21.1
